FYI, the data here is from patent US12060349B2.

# measured on: glucosylceramide synthase (Homo sapiens)
# Construct: Microsomes were isolated from A375 human melanoma cells; endogenous in cells
# Sequence (Q16739 1-394): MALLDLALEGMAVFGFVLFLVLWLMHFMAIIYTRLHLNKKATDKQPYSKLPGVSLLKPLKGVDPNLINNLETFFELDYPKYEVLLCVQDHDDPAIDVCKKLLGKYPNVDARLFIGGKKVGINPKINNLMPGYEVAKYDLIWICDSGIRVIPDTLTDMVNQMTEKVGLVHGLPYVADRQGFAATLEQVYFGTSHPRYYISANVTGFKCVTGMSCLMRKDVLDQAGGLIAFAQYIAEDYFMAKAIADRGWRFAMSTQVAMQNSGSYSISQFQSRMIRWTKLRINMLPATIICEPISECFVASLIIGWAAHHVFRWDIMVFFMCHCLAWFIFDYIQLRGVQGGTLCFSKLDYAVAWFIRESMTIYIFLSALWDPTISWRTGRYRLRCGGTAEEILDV
# assay summary: microsomal assay measuring conversion of ceramide to glucosylceramide by HPLC (GCS IC50)
# condition context: concentration causing 50% inhibition of glucosylceramide synthase activity
pIC50: −log10 of the molar value.
Think of 8 as a floor: if pIC50 stands on it or above, it is Fulfilled; beneath it, Not fulfilled.

INSERT INTO measurements (compound, answer_label) VALUES
  ('CNC(=O)c1ccc(-c2ccc(C(C)(C)NC(=O)NC3(C)CN4CCC3CC4)cc2)cc1 (stereo not shown)', 'Not fulfilled'),
  ('CC1(NC(=O)C2CCN(c3cncc(-c4ccc(F)cc4)n3)CC2)CN2CCC1CC2 (stereo not shown)', 'Fulfilled'),
  ('CC1(NC(=O)N2CCN(c3cccc(-c4ncccn4)c3)CC2)CCN2CCC1CC2 (stereo not shown)', 'Not fulfilled'),
  ('CC(C)(NC(=O)OC1CCN2CCC1CC2)c1ccc(-c2ccc(C(=O)N3CCOCC3)cc2)cc1 (stereo not shown)', 'Not fulfilled'),
  ('CC(C)(NC(=O)NC1(C)CN2CCC1CC2)c1cccc(Oc2cccc(C(=O)N3CCOCC3)c2)c1 (stereo not shown)', 'Not fulfilled'),
  ('C#CC1CN(C(=O)NC2(C)CCN3CCC2CC3)CCN1c1nccc(-c2ccc(COC)cc2)n1 (stereo not shown)', 'Not fulfilled'),
  ('COCCCOc1cnc(-c2cccc(C(C)(C)NC(=O)N3CCN4CCC3CC4)c2)cn1', 'Not fulfilled'),
  ('CC(C)(NC(=O)OC1CN2CCC1CC2)c1ccc(-c2ccc(C(=O)N3CCOCC3)cc2)cc1 (stereo not shown)', 'Not fulfilled'),
  ('COCCOCc1ccc(-c2ccc(C(C)(C)NC(=O)N3CCN4CCC3CC4)cc2)cc1', 'Not fulfilled'),
  ('CC(C)c1cccc(N2CCN(C(=O)NC3(C)CCN4CCC3CC4)CC2)c1 (stereo not shown)', 'Not fulfilled'),
  ('CC1(NC(=O)C2CCN(c3ncc(Oc4ccc(F)cc4)cn3)CC2)CCN2CCC1CC2 (stereo not shown)', 'Fulfilled'),
  ('CC1(NC(=O)N2CCN(c3ccccc3)CC2)CCN2CCC1CC2 (stereo not shown)', 'Not fulfilled'),
  ('CN(C)C(=O)c1cccc(Oc2cccc(C(C)(C)NC(=O)OC3CCN4CCC3CC4)c2)c1 (stereo not shown)', 'Not fulfilled'),
  ('CC1(NC(=O)C2(F)CCN(c3nccc(Oc4ccc(C#N)cc4)n3)CC2)CCN2CCC1CC2 (stereo not shown)', 'Fulfilled'),
  ('CC(C)(NC(=O)OC1CN2CCC1CC2)c1ccc(-c2ccc(CO)cc2)cc1 (stereo not shown)', 'Not fulfilled'),
  ('COCCCOc1ccc(-c2ccc(C3(NC(=O)NC4(C)CN5CCC4CC5)CC3)cc2)cc1 (stereo not shown)', 'Fulfilled'),
  ('COCCOc1ccc(-c2nc(N3CCC(F)(C(=O)NC4(C)CCN5CCC4CC5)CC3)ncc2F)cc1 (stereo not shown)', 'Fulfilled'),
  ('COCCOCc1ccc(-c2ccc(C3(NC(=O)NC4(C)CN5CCC4CC5)CC3)cc2)cc1 (stereo not shown)', 'Not fulfilled'),
  ('CC(C)(NC(=O)OC1CN2CCC1CC2)c1ccc(-c2ccc(C(=O)N3CCC(F)(F)CC3)cc2)cc1 (stereo not shown)', 'Not fulfilled'),
  ('COCCCOc1ccc(-c2ccnc(N3CCC(F)(C(=O)NC4(C)CN5CCC4CC5)CC3)n2)cc1 (stereo not shown)', 'Fulfilled'),
  ('COC1(C(=O)NC2(C)CCN3CCC2CC3)CCN(c2ncc(F)c(-c3ccc(OCCF)cc3)n2)CC1 (stereo not shown)', 'Fulfilled'),
  ('CCCC1(NC(=O)NC(C)(C)c2ccc(-c3ccc(S(C)(=O)=O)cc3)cc2)CN2CCC1CC2 (stereo not shown)', 'Not fulfilled'),
  ('C[C@H]1CN(C(=O)NC2(C)CCN3CCC2CC3)CCN1c1nccc(-c2ccccc2)n1 (single isomer, unassigned) [Example 140]', 'Not fulfilled'),
  ('CCC1(NC(=O)NC2(c3ccc(-c4ccc(COCCOC)cc4)cc3)CC2)CN2CCC1CC2 (single isomer, unassigned) [Example 209]', 'Not fulfilled'),
  ('COCCOc1ccc(-c2ccnc(N3CCC(F)(C(=O)NC4(C)CCN5CCC4CC5)CC3)n2)cc1 (stereo not shown)', 'Fulfilled'),
  ('CC1(NC(=O)C2CCN(c3nccc(-c4ccc(F)cc4)n3)CC2)CCN2CCC1CC2 (single isomer, unassigned) [Example 42]', 'Not fulfilled'),
  ('COCCOc1ccc(-c2ccc(C(C)(C)NC(=O)N3CCN4CCC3CC4)cc2)cc1', 'Not fulfilled');

----------
# System: GM3 expression on the cell surface, B16 mouse melanoma cells
# assay summary: cell based phenotypic assay, cell surface GM3 by antibody mediated immunofluorescence, B16 (GM3 B16 IC50)
# condition context: B16 mouse melanoma cells; 50% inhibition of GM3 expression on the cell surface; read-out: GM3 B16 IC50
pIC50: −log10 of the molar value.
recorded metric: pIC50

INSERT INTO assay_data (compound, inequality_sign, result) VALUES
  ('COCCOCc1ccc(-c2nc(N3CCC(F)(C(=O)NC4(C)CCN5CCC4CC5)CC3)ncc2F)cc1 (single isomer, unassigned) [Example 78]', '=', 5.51),
  ('CC1(NC(=O)C2CCN(c3cncc(-c4ccc(F)cc4)n3)CC2)CCN2CCC1CC2 (single isomer, unassigned) [Example 47]', '=', 5.66),
  ('C[C@@H]1CN(C(=O)NC2(C)CCN3CCC2CC3)CCN1c1nccc(-c2ccccc2)n1 (single isomer, unassigned) [Example 137]', '=', 7.30),
  ('C[C@@H]1CN(C(=O)NC2(C)CCN3CCC2CC3)CCN1c1nccc(-c2ccccc2)n1 (single isomer, unassigned) [Example 138]', '<', 5.00),
  ('C[C@H]1CN(C(=O)NC2(C)CCN3CCC2CC3)CCN1c1nccc(-c2ccccc2)n1 (single isomer, unassigned) [Example 140]', '=', 5.04),
  ('CCC1(NC(=O)NC2(c3ccc(-c4ccc(COCCOC)cc4)cc3)CC2)CN2CCC1CC2 (single isomer, unassigned) [Example 209]', '=', 7.41);

----------
Reported IC50 values are given for each entry in this list.
# measured on: glucosylceramide synthase (Homo sapiens, UniProt Q16739)
# Construct: Microsomes were isolated from A375 human melanoma cells; endogenous in cells
# assay summary: microsomal assay measuring conversion of ceramide to glucosylceramide by HPLC (GCS IC50)
# condition context: concentration causing 50% inhibition of glucosylceramide synthase activity
recorded metric: IC50 (µM)

INSERT INTO measurements (compound, result) VALUES
  ('O=C(NC1CCN2CCC1CC2)N1CCN(c2ccc(-c3ccccc3)cc2)CC1 (centres unmarked) [Example 3]', 10.9),
  ('CC(C)(NC(=O)NC1(C)CCN2CCC1CC2)c1ccc(Oc2ccc(C(=O)N3CCC(F)(F)CC3)cc2)cc1 (centres unmarked) [Example 302]', 0.00422),
  ('CC1(NC(=O)C2CCN(c3cccc(-c4ccccc4)c3)CC2)CN2CCC1CC2 (centres unmarked) [Example 35]', 0.0496),
  ('COCCOc1ccc(-c2cccc(N3CCC(C(=O)NC4(C)CCN5CCC4CC5)CC3)c2)cc1 (centres unmarked) [Example 68]', 0.0213),
  ('COCC1(CS(=O)(=O)c2ccc(-c3ccc(C(C)(C)NC(=O)OC4CN5CCC4CC5)cc3)cc2)CC1 (centres unmarked) [Example 249]', 0.0535),
  ('COCc1ccc(-c2ccnc(N3CCN(C(=O)NC4(C)CCN5CCC4CC5)CC3C(F)(F)F)n2)cc1 (centres unmarked) [Example 149]', 0.0109),
  ('CCCC1(NC(=O)NC(C)(C)C#Cc2ccc(COCc3cccnc3)cc2)CN2CCC1CC2 (centres unmarked) [Example 333]', 0.0161),
  ('CC(C)(NC(=O)OC1CCN2CCC1CC2)c1ccc(-c2ccc(C(=O)N3CCCCC3)cc2)cc1 (centres unmarked) [Example 263]', 0.0145),
  ('CC1(NC(=O)C2(F)CCN(c3cncc(Oc4ccc(F)cc4)c3)CC2)CCN2CCC1CC2 (centres unmarked) [Example 127]', 0.00227),
  ('O=C(OC1CCN2CCC1CC2)N1CCN(c2cccc(-c3ccccc3)c2)CC1 (centres unmarked) [Example 19]', 2.67),
  ('COCCOc1ccc(Oc2nc(N3CCC(F)(C(=O)NC4(C)CN5CCC4CC5)CC3)ncc2F)cc1 (centres unmarked) [Example 118]', 0.00254),
  ('CNC(=O)c1cccc(Oc2cccc(C(C)(C)NC(=O)NC3(C)CCN4CCC3CC4)c2)c1 (centres unmarked) [Example 297]', 0.0102),
  ('CCC1(NC(=O)NC(C)(C)c2ccc(-c3ccc(S(=O)(=O)CC4CC4)cc3)cc2)CN2CCC1CC2 (centres unmarked) [Example 239]', 0.00987),
  ('CNC(=O)c1ccc(-c2ccc(C(C)(C)NC(=O)OC3CN4CCC3CC4)cc2)cc1 (centres unmarked) [Example 252]', 1.84),
  ('CC1(NC(=O)C2CCN(c3cncc(-c4ccc(F)cc4)n3)CC2)CCN2CCC1CC2 (single isomer, unassigned) [Example 47]', 0.258),
  ('O=C(NC1(c2ccc(-c3ccc(COCc4cncnc4)cc3)cc2)CC1)OC1CN2CCC1CC2 (centres unmarked) [Example 219]', 0.0466),
  ('COCCOc1ccc(-c2ccc(C(C)(C)NC(=O)N[C@@]3(C)CN4CCC3CC4)cc2)cc1 [Example 157]', 0.228),
  ('COCCCOc1ccc(-c2nc(C(C)(C)NC(=O)OC3CCN4CCC3CC4)cs2)cc1 (centres unmarked) [Example 341]', 0.0193),
  ('COCCCc1ccc(-c2ccc(C3(NC(=O)OC4CCN5CCC4CC5)CC3)cc2)cc1 (centres unmarked) [Example 212]', 0.00385),
  ('O=C(NC1(c2ccc(-c3ccc(COCc4cncnc4)cc3)cc2)CC1)OC1CCN2CCC1CC2 (centres unmarked) [Example 221]', 0.0521),
  ('CC(C)(NC(=O)OC1CCN2CCC1CC2)c1ccc(-c2ccc(OCCCn3ccnn3)cc2)cc1 (centres unmarked) [Example 187]', 0.0202),
  ('CCOc1ccc(-c2cccc(C(C)(C)NC(=O)OC3CCN4CCC3CC4)c2)nn1 (centres unmarked) [Example 319]', 0.075),
  ('COCCCOc1ccc(-c2nc(C(C)(C)NC(=O)N3CCN4CCC3CC4)cs2)cc1 [Example 342]', 0.666),
  ('COCCOc1ccc(-c2ccc(C(C)(C)NC(=O)OC3CCN4CCC3CC4)cc2)nc1 (centres unmarked) [Example 310]', 0.123),
  ('CC1(NC(=O)N2CCN(c3cccc(-c4ccccc4)c3)CC2)CN2CCC1CC2 (centres unmarked) [Example 15]', 0.839),
  ('COCCOCc1ccc(-c2ccnc(N3CCC(F)(C(=O)N[C@]4(C)CN5CCC4CC5)CC3)n2)cc1 [Example 84]', 0.00535),
  ('CC1(NC(=O)C2CCN(c3nccc(-c4ccc(F)cc4)n3)CC2)CN2CCC1CC2 (centres unmarked) [Example 44]', 0.00124),
  ('CCCC1(NC(=O)NC(C)(C)C#Cc2ccc(CCOC)cc2)CN2CCC1CC2 (centres unmarked) [Example 326]', 0.0266),
  ('COCCOc1ccc(-c2ccc(C(C)(C)NC(=O)O[C@@H]3CN4CCC3CC4)cc2)cc1 [Example 156]', 0.00414),
  ('COCCOc1ccc(-c2ccc(C(C)(C)NC(=O)OC3CCN4CCC3CC4)nc2)cc1 (single isomer, unassigned) [Example 349]', 0.25),
  ('CCC1(NC(=O)NC(C)(C)c2ccc(-c3ccc(OCCn4ccnn4)cc3)cc2)CN2CCC1CC2 (centres unmarked) [Example 184]', 0.0211),
  ('CC1(NC(=O)C2CN(c3ncc(F)c(-c4ccc(F)cc4)n3)C2)CCN2CCC1CC2 (centres unmarked) [Example 112]', 0.00737);
